# EXPERIMENTAL_SYSTEM: pSTAT3 (tyrosine-phosphorylated STAT3)
# ASSAY_NOTES: SPR
# CONDITION_NOTES: PS x3 at 5' end of sense and 3' end of antisense; strands linked at one end by C-18 (18-atom hexa-ethyleneglycol) spacers; Langmuir 1:1, 4 C, 20 mM HEPES pH 7.0, 200 mM NaCl, 10 mM MgCl2
pKd: −log10 of the molar value.
QUANTITY_NAME: pKd

# SEQ_TEXT, DATA_VALUE
data = [
    ("CATTTCCCGTAAATC (double strand) [DS18]", 6.85),
]
